- Experimental System: T1, human VEGF (human, UniProt P15692-4 27-191)
- T1 construct: Bought recombinant protein; also called hVEGF; human VEGF-A
- T1 sequence (P15692 other isoform, or with tags, fused parts or gaps limits assumed): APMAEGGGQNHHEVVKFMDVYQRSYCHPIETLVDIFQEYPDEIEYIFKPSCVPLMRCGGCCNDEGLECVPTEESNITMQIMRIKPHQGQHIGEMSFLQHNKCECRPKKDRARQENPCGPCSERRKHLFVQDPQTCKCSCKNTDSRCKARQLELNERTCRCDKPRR
- Method: SPR (BIAcore X100), VEGF on CM5 chip, IgG injected, 1:1 Langmuir
Parameter Measured: Kd

Binder: HF2-2 (antibody, V domains shown) VH: EVQLVESGGGLVQPGGSLRLSCAASRFNMRSHGMQWVRQAPGKGLEYVAGISSDGSWERVGAAVEGRFTISRDDSKNTAYLQMNSLRAEDTAVYYCARDFSTGYGADSIDAWGQGTLVTVSS VL: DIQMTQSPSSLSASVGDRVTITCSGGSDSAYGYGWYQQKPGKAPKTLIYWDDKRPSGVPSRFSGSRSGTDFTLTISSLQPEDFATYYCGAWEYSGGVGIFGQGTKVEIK
Result: < 1 pM

Binder: HF2-10 (antibody, V domains shown) VH: EVQLVESGGGLVQPGGSLRLSCAASFQYFRSHGMQWVRQAPGKGLEYVAGISSDGSWFRVAAAVEGRFTISRDDSKNTAYLQMNSLRAEDTAVYYCARDFSTGYGADSIDAWGQGTLVTVSS VL: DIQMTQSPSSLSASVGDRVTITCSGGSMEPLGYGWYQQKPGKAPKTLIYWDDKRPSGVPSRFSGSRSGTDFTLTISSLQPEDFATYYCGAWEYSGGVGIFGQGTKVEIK
Result: < 1 pM

Kd reported for this binder HF2-6 (antibody, V domains shown) VH: EVQLVESGGGLVQPGGSLRLSCAASRFLLRSHGMQWVRQAPGKGLEYVAGISSDGSWFRVAAAVEGRFTISRDDSKNTAYLQMNSLRAEDTAVYYCARDFSTGYGADSIDAWGQGTLVTVSS VL: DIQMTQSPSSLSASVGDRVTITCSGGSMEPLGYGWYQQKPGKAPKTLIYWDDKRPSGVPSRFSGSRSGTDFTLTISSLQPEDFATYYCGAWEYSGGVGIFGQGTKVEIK : < 1 pM
